# System: HCT-15
# runDescription: Cytotoxicity against human HCT15 cells incubated from day 2 to day 4 by CCK8 assay
# Format: functional, cell-based
pIC50: −log10 of the molar value.
Consider the following compounds and their measured pIC50 readings.

Reference set, count: 5
c1ccc(-c2cc(-c3cccnc3)c3c(n2)-c2ccccc2C3)cc1 = < 4.30
CC[C@@]1(O)C(=O)OCc2c1cc1n(c2=O)Cc2cc3ccccc3nc2-1 = 6.28
Oc1ccccc1-c1cc(-c2ccsc2)c2c(n1)-c1ccccc1C2 = < 4.30
Oc1cccc(-c2cc(-c3ccncc3)c3c(n2)-c2ccccc2C3)c1 = < 4.30
Oc1ccc(-c2cc(-c3ccccn3)c3c(n2)-c2ccccc2C3)cc1 = < 4.30

Exercise: Please give the measured pIC50 for this compound: Oc1ccccc1-c1cc(-c2cccnc2)c2c(n1)-c1ccccc1C2
Key: < 4.30

---

Listed next: entries and their corresponding pIC50.
# Tested on: HCT-15
# runDescription: Cytotoxicity against human HCT15 cells incubated from day 2 to day 4 by CCK8 assay
# Assay type: functional, cell-based
pIC50: −log10 of the molar value.

Oc1cccc(-c2cc(-c3ccco3)c3c(n2)-c2ccccc2C3)c1 = 5.80
c1ccc(-c2cc(-c3cccs3)c3c(n2)-c2ccccc2C3)cc1 = < 4.30
Oc1ccc(-c2cc(-c3cccnc3)c3c(n2)-c2ccccc2C3)cc1 = < 4.30
c1ccc(-c2cc(-c3ccccn3)c3c(n2)-c2ccccc2C3)cc1 = < 4.30
Oc1cccc(-c2cc(-c3cccs3)c3c(n2)-c2ccccc2C3)c1 = 5.63

Exercise: What does the record list as pIC50 for Oc1ccccc1-c1cc(-c2ccco2)c2c(n1)-c1ccccc1C2 ?
Key: < 4.30
